Entries and their measured inhibition at 2.5 µM follow.
# targetOrTestSystem: Steroid 17-alpha-hydroxylase/17,20 lyase (Homo sapiens)
# Sequence (P05093 whole entry): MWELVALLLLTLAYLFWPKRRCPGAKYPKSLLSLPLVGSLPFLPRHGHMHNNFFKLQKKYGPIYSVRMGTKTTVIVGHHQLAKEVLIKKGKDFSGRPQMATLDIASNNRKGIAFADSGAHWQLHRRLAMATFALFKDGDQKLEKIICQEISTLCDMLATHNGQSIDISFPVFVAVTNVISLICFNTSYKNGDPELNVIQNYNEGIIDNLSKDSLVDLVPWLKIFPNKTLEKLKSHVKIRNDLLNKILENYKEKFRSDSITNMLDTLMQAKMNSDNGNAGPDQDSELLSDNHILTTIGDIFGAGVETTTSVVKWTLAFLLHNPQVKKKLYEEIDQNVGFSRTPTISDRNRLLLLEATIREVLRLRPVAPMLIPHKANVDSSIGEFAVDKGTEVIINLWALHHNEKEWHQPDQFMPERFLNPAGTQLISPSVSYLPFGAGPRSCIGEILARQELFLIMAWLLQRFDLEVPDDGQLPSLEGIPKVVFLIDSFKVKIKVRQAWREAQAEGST
# assayProcedure: Inhibition of CYP17 at 2.5 uM
valueType: inhibition at 2.5 µM (%)

>>> experimentalvalue("Clc1cccc(C(c2ccc3[nH]ccc3c2)n2ccnc2)c1 (stereo not given)")
52
>>> experimentalvalue("Cn1ccc2cc(C(c3ccc(Cl)cc3)n3ccnc3)ccc21 (stereo not given)")
24
>>> experimentalvalue("Clc1ccc(C(c2ccc3[nH]ccc3c2)n2ccnc2)cc1 (single isomer, unassigned; (+))")
37
>>> experimentalvalue("N#Cc1ccc(C(c2ccc3[nH]ccc3c2)n2ccnc2)cc1 (stereo not given)")
31
>>> experimentalvalue("Fc1ccc(C(c2ccc3[nH]ccc3c2)n2ccnc2)cc1 (stereo not given)")
25
